# Test system: B16-F10 cells
# assay: Melanin assay test in B16-F10 cells
# Type: cell-based, murine
# condition.set: Mus musculus, B16-F10; 0.1 μM α-MSH stimulated, 72 hours treatment; read-out: Results activity B16-F10 IC50 (50% melanin synthesis inhibition)
endpoint: IC50 (µM)

compound	assayed.system	endpoint	measured.result
CC1(C)CC(=O)C2=C(C1)OC1=C(C(=O)CC(C)(C)C1)C2c1ccc(O)c(O)c1	B16-F10 cells	IC50	20
COc1cc(C2C3=C(CC(C)(C)CC3=O)OC3=C2C(=O)CC(C)(C)C3)ccc1O[C@@H]1OC(CO)[C@@H](O)C(O)C1O (stereo in doubt)	B16-F10 cells	IC50	69
CC1(C)CC(=O)C2=C(C1)OC1=C(C(=O)CC(C)(C)C1)C2c1ccc(O)cc1	B16-F10 cells	IC50	37
O=C1CC(c2ccccc2)CC2=C1C(c1ccc(O)c(O)c1)C1=C(CC(c3ccccc3)CC1=O)O2 (stereo not shown)	B16-F10 cells	IC50	7
